- Tested System: T1, CS1-Fc (human, UniProt Q9NQ25 23-226)
- T1 construct: also called recombinant human CS1-Fc; CS1-Fc polypeptide; not shown: Fc portion of CS1-Fc
- T1 sequence: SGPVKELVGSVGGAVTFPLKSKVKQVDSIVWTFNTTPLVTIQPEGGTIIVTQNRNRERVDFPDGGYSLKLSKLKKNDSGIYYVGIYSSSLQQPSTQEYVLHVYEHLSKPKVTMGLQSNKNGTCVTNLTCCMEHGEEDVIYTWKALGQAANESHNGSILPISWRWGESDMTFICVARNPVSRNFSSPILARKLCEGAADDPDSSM
- Protocol Summary: phage ELISA, CS1-Fc captured on anti-human IgG1-Fc, anti-M13-HRP, A450 target / A450 IgG1-Fc
Reported Metric: ELISA score (ratio of phage binding to CS1-Fc vs IgG-Fc) (ratio)
Answer in ratio, number only, no unit symbol.

As a guide, the following entries are already answered.
SEQ ID NO 75 (designed binder) MGSWHEFWTRLTAIQMRLDALGGSEAELAAFEKEIAAFESELQAYKGKGNPEVEDLRAFAAQIRTHLQAYRHN ... 16
CS1DD023 (designed binder) MGSWVEFYDRLEAIWQRLEALGGSEAELAAFEKEIAAFESELQAYKGKGNPEVEKLRRHAAGIRMRLQAYRHN ... 18.8
SEQ ID NO 65 (designed binder) MGSWVEFEWRLYAIAGRLEALGGSEAELAAFEKEIAAFESELQAYKGKGNPEVEYLRQGAARIRATLQAYRHN ... 15.7
SEQ ID NO 77 (designed binder) MGSWSEFWFRLLAIEQRLEALGGSEAELAAFEKEIAAFESELQAYKGKGNPEVEDLRDYAALIREMLQAYRHN ... 17.8

Next item in the queue.
Hello, please tell me recorded ELISA score (ratio of phage binding to CS1-Fc vs IgG-Fc) for this one: SEQ ID NO 81 (designed binder) MGSWSEFWIRLAAIELRLSALGGSEAELAAFEKEIAAFESELQAYKGKGNPEVEELRDYAAIIRRELQAYRHN
13.8
